Target: c-Met kinase domain recombinant protein (Homo sapiens, UniProt P08581)
Construct: 50 μL diluted solution of c-Met kinase domain recombinant protein in reaction buffer was added to initiate the reaction
Sequence (P08581 1078-1345 limits assumed): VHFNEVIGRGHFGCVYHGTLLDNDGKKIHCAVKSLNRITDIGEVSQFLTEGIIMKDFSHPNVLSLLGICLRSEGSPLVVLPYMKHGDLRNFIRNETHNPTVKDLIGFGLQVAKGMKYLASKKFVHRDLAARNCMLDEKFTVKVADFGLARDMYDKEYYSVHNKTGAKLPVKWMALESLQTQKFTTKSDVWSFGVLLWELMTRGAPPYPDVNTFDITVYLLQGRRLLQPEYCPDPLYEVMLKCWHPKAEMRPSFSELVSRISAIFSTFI
Assay Comment: biochemical
Condition Details: read-out: Average inhibition rate at 0.1 μM (%)
Property Measured: inhibition at 0.1 µM (%)

Consider the following illustrative entries.
Cn1cc(-c2ccc3ncc(S(=O)(=O)n4ncc5ncc(-c6cnn(C7CCN(C8CCCC8)CC7)c6)cc54)n3c2)cn1 = 90.2
COc1ccc2ncc(S(=O)(=O)n3ncc4ncc(-c5cnn(C)c5)cc43)n2c1 = 99
COc1ccc(-c2ccc3ncc(S(=O)(=O)n4ncc5ncc(-c6cnn(C)c6)cc54)n3c2)cc1OC = 56.6
Cn1cc(-c2ccc3ncc(S(=O)(=O)n4ncc5ncc(-c6ccc(CN7CCOCC7)cc6)cc54)n3c2)cn1 = 90
CC(C)(C)OC(=O)N1CCC(n2cc(-c3cnc4cnn(S(=O)(=O)c5cnc6ccc(Cl)nn56)c4c3)cn2)CC1 = 73.7

1 = COc1ccc2ncc(S(=O)(=O)n3ncc4ncc(-c5cncc6ccccc56)cc43)n2c1
2 = Cn1cc(-c2cnc3cnn(S(=O)(=O)c4cnc5ccc(-c6cccc(F)c6)cn45)c3c2)cn1
## Input Response body: label of entry with the larger inhibition at 0.1 µM; valid values 1 , 2 . // return label of chosen record
## Output 1

Source: patent US9988381B2
